Measured pIC50, listed per entry.
Molecular target: NRAS Q61R (Homo sapiens (Human), UniProt P01111+P62937, Q61R)
Sequence (P01111 whole entry Q61R, one chain of several): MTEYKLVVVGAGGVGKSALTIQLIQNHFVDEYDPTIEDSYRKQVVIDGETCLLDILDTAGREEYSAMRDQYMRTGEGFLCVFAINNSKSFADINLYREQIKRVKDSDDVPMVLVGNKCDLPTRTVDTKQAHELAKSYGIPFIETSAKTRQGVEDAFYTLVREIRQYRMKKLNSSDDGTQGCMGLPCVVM
Test: Ras-Raf (BRAF RBD) disruption / FRET / MOA assay, NRAS Q61R
Type: biochemical
Details: NRAS Q61R; Ras-Raf disruption/FRET/MOA assay; read-out: IC50* NRAS Q61R FRET data
pIC50: −log10 of the molar value.

Please review the following examples before continuing.
>  <compound>
C=CC(=O)N1CC[C@H](C(=O)N(C)[C@H](C(=O)N[C@H]2Cc3nc(n(C)n3)-c3ccc4c(c3)c(c(-c3cccnc3[C@H](C)OC)n4CC)CC(C)(C)COC(=O)[C@@H]3CCCN(N3)C2=O)C(C)C)C1 (atropisomer, axis not shown) [Example A314]

>  <pIC50>
6.00 to 7.00

$$$$
>  <compound>
CO[C@@H](C)c1ncccc1-c1c2c3cc(ccc3n1CC(F)(F)F)-c1cc(cc(C(F)F)c1)C[C@H](NC(=O)[C@H](C(C)C)N(C)C(=O)[C@H]1CCN(C(=O)C#CC(C)(C)N3CCC3)C1)C(=O)N1CCC[C@H](N1)C(=O)OCC(C)(C)C2 (atropisomer, axis not shown) [Example A370]

>  <pIC50>
5.00 to 6.00

$$$$
>  <compound>
C=C(OC)C(=O)N1CC(N(C)C(=O)N(C)[C@H](C(=O)N[C@H]2Cc3nc(cs3)-c3ccc4c(c3)c(c(-c3cccnc3[C@H](C)OC)n4CC)CC(C)(C)COC(=O)[C@@H]3CCCN(N3)C2=O)C(C)C)C1 (atropisomer, axis not shown) [Example A713]

>  <pIC50>
6.00 to 7.00

$$$$
>  <compound>
CCn1c(-c2cccnc2[C@H](C)OC)c2c3cc(ccc31)-c1cc(CF)cc(c1)C[C@H](NC(=O)[C@H](C(C)C)N(C)C(=O)[C@H]1CCN(C(=O)C#CC(C)(C)N(C)C)C1)C(=O)N1CCC[C@H](N1)C(=O)OCC(C)(C)C2 (atropisomer, axis not shown) [Example A658]

>  <pIC50>
5.00 to 6.00

$$$$
>  <compound>
CCn1c(-c2cccnc2[C@H](C)OC)c2c3cc(ccc31)N1CCO[C@@H](C[C@H](NC(=O)[C@H](C(C)C)N(C)C(=O)[C@@]3(F)CCC(C(=O)C#CC(C)(C)N4CCC4)C3)C(=O)N3CCC[C@H](N3)C(=O)OCC(C)(C)C2)C1 (stereo partly shown) [Example A726]

>  <pIC50>
< 5.00

$$$$

# return recorded pIC50 for entry C=CC(=O)Nc1cnc(OC[C@H](C(=O)N[C@H]2Cc3cccc(c3)-c3ccc4c(c3)c(c(-c3cccnc3[C@H](C)OC)n4CC)CC(C)(C)COC(=O)[C@@H]3CCCN(N3)C2=O)C(C)C)n1C (atropisomer, axis not shown) [Example A600]
5.00 to 6.00

# return recorded pIC50 for entry CCn1c(-c2cccnc2[C@H](C)OC)c2c3cc(ccc31)-c1cccc(c1)C[C@H](NC(=O)[C@@H](CO[C@@H]1CCN(C(=O)C#CC(C)(C)N(C)C)C1)C(C)C)C(=O)N1CCC[C@H](N1)C(=O)OCC(C)(C)C2 (atropisomer, axis not shown) [Example A584]
< 5.00

====

Molecular target: KRAS G13D (Homo sapiens (Human), UniProt P01116+P62937, G13D)
Sequence (P01116-2 other isoform, or with tags, fused parts or gaps G13D): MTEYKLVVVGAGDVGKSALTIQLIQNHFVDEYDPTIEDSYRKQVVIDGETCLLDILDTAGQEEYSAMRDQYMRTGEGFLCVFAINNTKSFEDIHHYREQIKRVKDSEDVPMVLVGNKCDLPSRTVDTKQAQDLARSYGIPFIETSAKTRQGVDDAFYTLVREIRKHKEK
Sequence (P62937 whole entry): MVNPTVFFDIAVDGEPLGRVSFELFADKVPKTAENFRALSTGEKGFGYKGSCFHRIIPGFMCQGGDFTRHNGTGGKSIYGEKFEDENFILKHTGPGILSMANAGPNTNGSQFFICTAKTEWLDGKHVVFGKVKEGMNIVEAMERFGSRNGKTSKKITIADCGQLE
Assay: Ras-Raf (BRAF RBD) disruption / FRET / MOA assay, KRAS G13D
Type: biochemical
Details: read-out: IC50* KRAS G13D FRET data
Protocol: The purpose of this biochemical assay is to measure the ability of test compounds to facilitate ternary complex formation between a nucleotide-loaded Ras isoform and cyclophilin A; the resulting ternary complex disrupts binding to a BRAF^RBD construct, inhibiting Ras signaling through a RAF effector. Compound is present in plate wells as a 10-point 3-fold dilution series starting at a final concentration of 30 μM. […]
Measured IC50, listed per entry.

>  <compound>
CCn1c(-c2cccnc2[C@H](C)OC)c2c3cc(ccc31)-c1cc(O)cc(c1)C[C@H](NC(=O)[C@H](C(C)C)N(C)C(=O)N1CCCN(C(=O)/C=C/CN(C)C)CC1)C(=O)N1CCC[C@H](N1)C(=O)OCC(C)(C)C2 (atropisomer, axis not shown) [Example A264]

>  <assay-endpoint>
IC50

>  <endpoint-value>
10 to 100 nM

$$$$
>  <compound>
CCn1c(-c2cccnc2[C@H](C)OC)c2c3cc(ccc31)-c1cc(CF)cc(c1)C[C@H](NC(=O)[C@H](C(C)C)N1CC[C@]3(CCN(C(=O)C#CC(C)(C)N(C)C)C3)C1=O)C(=O)N1CCC[C@H](N1)C(=O)OCC(C)(C)C2 (atropisomer, axis not shown) [Example A673]

>  <assay-endpoint>
IC50

>  <endpoint-value>
1000 to 10000 nM

$$$$
>  <compound>
CO[C@@H](C)c1ncccc1-c1c2c3cc(ccc3n1CC(F)(F)F)-c1csc(n1)C[C@H](NC(=O)[C@H](C(C)C)N(C)C(=O)N1C[C@@H]3OCCN(C(=O)/C=C/CN(C)C)[C@@H]3C1)C(=O)N1CCC[C@H](N1)C(=O)OCC(C)(C)C2 (atropisomer, axis not shown) [Example A573]

>  <assay-endpoint>
IC50

>  <endpoint-value>
100 to 1000 nM

$$$$
>  <compound>
C=CC(=O)N1C[C@@H](C(=O)N(C)[C@@H](C(=O)N[C@H]2Cc3cc(O)cc(c3)-c3ccc4c(c3)c(c(-c3cccnc3COC)n4CC)CC(C)(C)COC(=O)[C@@H]3CCCN(N3)C2=O)C(C)C)C[C@H]1C [Example A159]

>  <assay-endpoint>
IC50

>  <endpoint-value>
1000 to 10000 nM

$$$$
>  <compound>
C=CC(=O)N1CCC12CCN(C(=O)N(C)[C@H](C(=O)N[C@H]1Cc3nc(cs3)-c3ccc4c(c3)c(c(-c3cccnc3[C@H](C)OC)n4CC)CC(C)(C)COC(=O)[C@@H]3CCCN(N3)C1=O)C(C)C)CC2 (atropisomer, axis not shown) [Example A415]

>  <assay-endpoint>
IC50

>  <endpoint-value>
100 to 1000 nM

$$$$
>  <compound>
CCn1c(-c2cccnc2[C@H](C)OC)c2c3cc(ccc31)N1CCO[C@@H](C[C@H](NC(=O)[C@H](C(C)C)N3CC[C@@]4(CCN(C(=O)C#CC(C)(C)N(C)C)C4)C3=O)C(=O)N3CCC[C@H](N3)C(=O)OCC(C)(C)C2)C1 (atropisomer, axis not shown) [Example A614]

>  <assay-endpoint>
IC50

>  <endpoint-value>
> 10000 nM

$$$$
>  <compound>
C=CC(=O)Nc1ncc(C(=O)N(C)[C@H](C(=O)N[C@H]2Cc3cccc(c3)-c3ccc4c(c3)c(c(-c3cccnc3[C@H](C)OC)n4CC)CC(C)(C)COC(=O)[C@@H]3CCCN(N3)C2=O)C(C)C)n1C (atropisomer, axis not shown) [Example A474]

>  <assay-endpoint>
IC50

>  <endpoint-value>
1000 to 10000 nM

$$$$
>  <compound>
C=CC(=O)N1CC[C@H](C(=O)N(C)[C@H](C(=O)N[C@H]2Cc3cccc(c3)-c3ccc4c(c3)c(c(-c3cnn(C5CCN(C)CC5)c3[C@H](C)OC)n4CC)CC(C)(C)COC(=O)[C@@H]3CCCN(N3)C2=O)C(C)C)C1 [Example A482]

>  <assay-endpoint>
IC50

>  <endpoint-value>
> 10000 nM

$$$$
>  <compound>
CC#CC(=O)N1CC[C@H](C(=O)N(C)[C@H](C(=O)N[C@H]2Cc3nc(ns3)-c3ccc4c(c3)c(c(-c3cccnc3[C@H](C)OC)n4CC)CC(C)(C)COC(=O)[C@@H]3CCCN(N3)C2=O)C(C)C)C1 (atropisomer, axis not shown) [Example A289]

>  <assay-endpoint>
IC50

>  <endpoint-value>
> 10000 nM

$$$$
>  <compound>
C=CC(=O)N1CC2(C1)OCCCN2C(=O)N(C)[C@H](C(=O)N[C@H]1Cc2nc(cs2)-c2ccc3c(c2)c(c(-c2cccnc2[C@H](C)OC)n3CC)CC(C)(C)COC(=O)[C@@H]2CCCN(N2)C1=O)C(C)C (atropisomer, axis not shown) [Example A735]

>  <assay-endpoint>
IC50

>  <endpoint-value>
> 10000 nM

$$$$

# return recorded IC50 for entry C=CC(=O)NCCN(C)C(=O)N(C)[C@H](C(=O)N[C@H]1Cc2nc(cs2)-c2ccc3c(c2)c(c(-c2cccnc2[C@H](C)OC)n3CC)CC(C)(C)COC(=O)[C@@H]2CCCN(N2)C1=O)C(C)C (atropisomer, axis not shown) [Example A438]
100 to 1000 nM

# return recorded IC50 for entry C=CC(=O)N1CC[C@@]2(CCN([C@H](C(=O)N[C@H]3Cc4cccc(c4)-c4ccc5c(c4)c(c(-c4cccnc4[C@H](C)OC)n5CC)CC(C)(C)COC(=O)[C@@H]4CCCN(N4)C3=O)C(C)C)C2=O)C1 (atropisomer, axis not shown) [Example A471]
> 10000 nM

# return recorded IC50 for entry C=CC(=O)N1CC[C@H](C(=O)N(C)[C@H](C(=O)N[C@H]2Cc3cccc(c3)-c3ccc4c(c3)c(c(-c3cccnc3[C@H](C)OC)n4CC)CC(C)(C)COC(=O)[C@@H]3CCCN(N3)C2=O)C2CC2)C1 (atropisomer, axis not shown) [Example A320]
> 10000 nM

# return recorded IC50 for entry C=CC(=O)N1CC(OC[C@H](C(=O)N[C@H]2Cc3cc(O)cc(c3)-c3ccc4c(c3)c(c(-c3cccnc3COC)n4CC)CC(C)(C)COC(=O)[C@@H]3CCCN(N3)C2=O)C(C)C)C1 [Example A232]
1000 to 10000 nM

# return recorded IC50 for entry C=CC(=O)N1CC[C@]2(C1)OCN([C@H](C(=O)N[C@H]1Cc3cc(cc(C(F)F)c3)-c3ccc4c(c3)c(c(-c3cccnc3[C@H](C)OC)n4CC)CC(C)(C)COC(=O)[C@@H]3CCCN(N3)C1=O)C(C)C)C2=O (atropisomer, axis not shown) [Example A557]
1000 to 10000 nM
